Below is a list of entries, each paired with its recorded self-cleavage value.
B1: Twister Ribozyme (parent)
chain: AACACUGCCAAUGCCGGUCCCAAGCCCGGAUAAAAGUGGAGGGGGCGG

- Variants of: B1
- assay comment: self-cleavage, relative activity (ratio to wild type); higher = more cleavage; co-transcriptional
measure: self-cleavage

INSERT INTO measurements (residue_change, recorded_result) VALUES
  ('C3A C15G', 0.0656),
  ('G13C G28A', 0.307),
  ('C5A A30C', 0.348),
  ('A4G G16C', 0.243),
  ('G24U U37A', 0.0892),
  ('U18C A33U', 0.542),
  ('C15A G36U', 0.142),
  ('U31A G38C', 0.801),
  ('C14G C26A', 0.0764),
  ('A1G G47U', 0.278),
  ('G7C G45C', 0.0912),
  ('C5G C8G', 0.0701),
  ('C26G G41C', 0.0955),
  ('G24C G36A', 0.115),
  ('A2G A10U', 0.346),
  ('G28C G29U', 0.98),
  ('G24C G45U', 0.119),
  ('G16U A35U', 0.948),
  ('C3G G38A', 0.559),
  ('A2C U18G', 0.0901),
  ('A32U G42A', 0.324),
  ('G7U C19A', 0.0864),
  ('A2C C19G', 0.0832),
  ('C26A G28C', 0.48),
  ('A35G G45U', 0.659),
  ('A1G G45C', 0.254),
  ('A10G A33C', 1.03),
  ('C27U G38U', 0.756),
  ('A2C C21G', 0.0366),
  ('C26G G42A', 0.103),
  ('C8G A40G', 0.146),
  ('G29U U37A', 0.512),
  ('G17A G29U', 0.336),
  ('C14A A40C', 0.189),
  ('C25G G41A', 0.146),
  ('C14U A22U', 0.848),
  ('G7U C27U', 0.079),
  ('U18G U31C', 0.106),
  ('C27A G48C', 0.563),
  ('C5A G48A', 0.539),
  ('C20A A35U', 0.151),
  ('U6C C27U', 0.275),
  ('G28U A32G', 0.777),
  ('C5A C27A', 0.0839),
  ('C25A G41U', 0.0916),
  ('A34G G48C', 0.791),
  ('U6G G17C', 0.0484),
  ('A22U A32U', 0.71),
  ('A23U C25A', 0.0618),
  ('C9G C14G', 0.0866),
  ('C15G A35G', 0.0859),
  ('C21A G39A', 0.0763),
  ('U31G A35U', 1.01),
  ('A22C G48U', 1.03),
  ('C9A G42A', 0.149),
  ('A1U U31G', 0.0468),
  ('A11C C19G', 0.138),
  ('G7U A40G', 0.0793),
  ('C14A G48C', 1.04),
  ('G29A G48A', 0.874);
